# System: HCT116
# MEASUREMENT SETUP: 72 h; ICRF193 200 nM
Structures can show the parent of a compound that is named as a salt.
RECORDED ENDPOINT: IC50 cell viability

Please review the entries below; each comes with its answer.
O=C(CCCN1CCN(c2ccc(F)cc2)CC1)NC1c2ccccc2CSc2ccccc21 (configuration not stated) [Monatepil]: 23.1 µM
CO[C@H]1C[C@@H]2CC[C@@H](C)[C@@](O)(O2)C(=O)C(=O)N2CCCC[C@H]2C(=O)O[C@H]([C@H](C)C[C@@H]2CC[C@@H](OC(=O)C(C)(CO)CO)[C@H](OC)C2)CC(=O)[C@H](C)/C=C(\C)[C@@H](O)[C@@H](OC)C(=O)[C@H](C)C[C@H](C)/C=C/C=C/C=C/1C: 15.9 µM
N[C@@H](CCC(=O)N[C@@H](CS)C(=O)NCC(=O)O)C(=O)O: 3.18 µM
NS(=O)(=O)c1cc2c(cc1Cl)N=CNS2(=O)=O [Chlorothiazide]: > 45.8 µM
CCOC(=O)C1(c2ccccc2)CCCN(C)CC1 (configuration not stated) [Ethoheptazine hydrochloride]: > 45.8 µM
C1CNCCN1: > 45.8 µM
O=C(Nc1ccc([N+](=O)[O-])cc1Cl)c1cc(Cl)ccc1O [Niclosamide]: 0.712 µM
CCC(=O)Oc1ccc2c(c1)CC[C@@H]1[C@@H]2CC[C@@]2(C)[C@H]1C[C@@H](OC(=O)CC)[C@@H]2OC(=O)CC [Estriol tripropionate]: > 45.8 µM
NCCS [Cysteamine hydrochloride]: > 45.8 µM
COc1cnc(NS(=O)(=O)c2ccc(N)cc2)nc1: > 45.8 µM

Consider the compound CO[C@H]1/C=C/O[C@@]2(C)Oc3c(C)c(O)c4c(O)c(c5c(nc6cc(C)ccn65)c4c3C2=O)NC(=O)/C(C)=C\C=C\[C@H](C)[C@H](O)[C@@H](C)[C@@H](O)[C@@H](C)[C@H](OC(C)=O)[C@@H]1C and give its measured IC50 cell viability. > 45.8 µM

Consider the compound CCCCCCCC(=O)N[C@H](CN1CCCC1)[C@H](O)c1ccc2c(c1)OCCO2 [Eliglustat (Tartrate)] and give its measured IC50 cell viability. 29.1 µM

Consider the compound CC(=C(CCOC(=O)C(C)C)SSC(CCOC(=O)C(C)C)=C(C)N(C=O)Cc1cnc(C)nc1N)N(C=O)Cc1cnc(C)nc1N and give its measured IC50 cell viability. > 45.8 µM

---

# System: HCT116
# MEASUREMENT SETUP: 72 h; ICRF193 0 nM
Attribute: IC50 cell viability

Please review the entries below; each comes with its answer.
Cc1cccc(Nc2ccncc2S(=O)(=O)NC(=O)NC(C)C)c1 [Torsemide]: > 45.8 µM
Oc1c(Cl)cc(Cl)c2cccnc12: 29.1 µM
OC[C@H]1O[C@@H](n2cnc3c2N=CNC[C@H]3O)C[C@@H]1O: > 45.8 µM

Consider the compound C=CCN1CC[C@]23CCCC[C@H]2[C@H]1Cc1ccc(O)cc13 and give its measured IC50 cell viability. > 45.8 µM

Consider the compound CN1N=C2CCN(C(=O)[C@@H](COCc3ccccc3)NC(=O)C(C)(C)N)C[C@@]2(Cc2ccccc2)C1=O and give its measured IC50 cell viability. > 45.8 µM

---

# Tested on: HCT116
# MEASUREMENT SETUP: 72 h; ICRF193 200 nM
Attribute: IC50 cell viability

Please review the entries below; each comes with its answer.
CC(C(O)c1ccc(O)cc1)N1CCC(Cc2ccccc2)CC1 (stereo unspecified) [Ifenprodil]: > 45.8 µM
OC[C@H]1O[C@H](O[C@]2(CCl)O[C@H](CCl)[C@@H](O)[C@@H]2O)[C@H](O)[C@@H](O)[C@H]1Cl [Sucralose]: 6.51 µM
COc1cc2nc(N3CCN(C(=O)c4ccco4)CC3)nc(N)c2cc1OC [Prazosin]: 7.99 µM
CCOC(=O)NNc1ccc(N(CC)CC(C)O)nn1 (stereo unspecified) [Cadralazine]: > 45.8 µM
Cl[C@H]1[C@H](Cl)[C@@H](Cl)[C@@H](Cl)[C@H](Cl)[C@H]1Cl [LINDANE]: > 45.8 µM

Consider the compound Clc1ccccc1C(c1ccccc1)(c1ccccc1)n1ccnc1 [Clotrimazole] and give its measured IC50 cell viability. 16.4 µM

---

# Test system: HCT116
# MEASUREMENT SETUP: 72 h; ICRF193 0 nM
Where a name gives a salt, the structure may show the parent alone.
RECORDED ENDPOINT: IC50 cell viability

CN(C(=O)CN(CCO)CC(=O)N(C)C(C)(C)Cc1ccccc1)C(C)(C)Cc1ccccc1 [Oxethazaine]: 16.4 µM
Cc1[nH]cnc1CN1CCc2c(c3ccccc3n2C)C1=O [Alosetron hydrochloride]: > 45.8 µM
COP(=O)(OC)C(O)C(Cl)(Cl)Cl (stereo unspecified) [Trichlorfon]: > 45.8 µM
C#C[C@]1(O)CC[C@H]2[C@@H]3CCC4=CCCC[C@@H]4[C@H]3C(=C)C[C@@]21CC [Desogestrel]: > 45.8 µM
CCCCc1oc2ccc(NS(C)(=O)=O)cc2c1C(=O)c1ccc(OCCCN(CCCC)CCCC)cc1 [Dronedarone hydrochloride]: 20.6 µM
N=C(N)c1ccc(/C=C/c2ccc(C(=N)N)cc2O)cc1 [Hydroxystilbamidine bis(methanesulfonate)]: > 45.8 µM
COc1ccc(CC(C)(C)NC[C@H](O)c2cc(O)cc3c2OCC(=O)N3)cc1 [Olodaterol]: > 45.8 µM
CN(C)CCOc1ccccc1Cc1ccccc1 [Phenyltoloxamine citrate]: > 45.8 µM

Consider the molecule c1ccc2sc(SNC3CCCCC3)nc2c1 [N-Cyclohexyl-2-benzothiazolesulfenamide] and give its measured IC50 cell viability. > 45.8 µM

Consider the molecule CN1[C@@H]2CC[C@H]1C[C@@H](OC(=O)c1c[nH]c3ccccc13)C2 [Tropisetron] and give its measured IC50 cell viability. > 45.8 µM

Consider the molecule COc1ccc(CCNCC(O)COc2cccc(C)c2)cc1OC (stereo unspecified) [Bevantolol hydrochloride] and give its measured IC50 cell viability. > 45.8 µM

Consider the molecule CN1C(=O)OC(C)(C)C1=O [Trimethadione] and give its measured IC50 cell viability. > 45.8 µM

Consider the molecule COc1cc(C)c(Cc2cnc(N)nc2N)cc1OC [Ormetoprim] and give its measured IC50 cell viability. > 45.8 µM

Consider the molecule CN1C(CCl)Nc2cc(Cl)c(S(N)(=O)=O)cc2S1(=O)=O (stereo unspecified) [Methyclothiazide] and give its measured IC50 cell viability. > 45.8 µM

Consider the molecule C[C@@H]1O[C@@H](O[C@H]2C[C@@H](O)[C@]3(CO)[C@H]4[C@H](O)C[C@]5(C)[C@@H](C6=CC(=O)OC6)CC[C@]5(O)[C@@H]4CC[C@]3(O)C2)[C@H](O)[C@H](O)[C@H]1O [Ouabain octahydrate] and give its measured IC50 cell viability. 0.116 µM

Consider the molecule COc1cc([C@@H]2c3cc4c(cc3[C@@H](O[C@@H]3O[C@@H]5CO[C@@H](c6cccs6)O[C@H]5[C@H](O)[C@H]3O)[C@H]3COC(=O)[C@H]23)OCO4)cc(OC)c1O [Teniposide] and give its measured IC50 cell viability. 2.31 µM

Consider the molecule COc1cccc(C(=O)CCN[C@@H](C)[C@H](O)c2ccccc2)c1 [l-Oxyfedrine hydrochloride] and give its measured IC50 cell viability. > 45.8 µM

Consider the molecule CC(=O)OCC(=O)Nc1cc(C#N)cc(NC(=O)COC(C)=O)c1Cl [Acreozast] and give its measured IC50 cell viability. > 45.8 µM

Consider the molecule NCCCC(N)(C(=O)O)C(F)F (stereo unspecified) [Eflornithine Hydrochloride] and give its measured IC50 cell viability. > 45.8 µM

Consider the molecule CC1(C)O[C@H]2CC(=O)OC[C@]23[C@H]2CC[C@@]4(C)[C@H](c5ccoc5)OC(=O)[C@H]5O[C@]54[C@]2(C)C(=O)C[C@@H]13 [Limoni] and give its measured IC50 cell viability. > 45.8 µM

Consider the molecule CC(=O)/N=c1/sc(S(N)(=O)=O)nn1C [Methazolamide] and give its measured IC50 cell viability. > 45.8 µM

Consider the molecule CN(C)CCCOc1nn(Cc2ccccc2)c2ccccc12 [Benzydamine hydrochloride] and give its measured IC50 cell viability. > 45.8 µM

Consider the molecule CC(C)(C)c1ccc(CN2CCN(C(c3ccccc3)c3ccc(Cl)cc3)CC2)cc1 (stereo unspecified) [Buclizine HCl] and give its measured IC50 cell viability. 20.6 µM

---

# Tested on: HCT116
# MEASUREMENT SETUP: 72 h; ICRF193 200 nM
Where a name gives a salt, the structure may show the parent alone.
RECORDED ENDPOINT: IC50 cell viability (µM)

CCN(CC)CCOc1ccc(C(=C(Cl)c2ccccc2)c2ccccc2)cc1 [Clomifene citrate]: 20.6
CCCCCCCCc1ccc(CCC(N)(CO)CO)cc1 [Fingolimod hydrochloride]: 20.6
Cc1cc(C(C#N)c2ccc(Cl)cc2)c(Cl)cc1NC(=O)c1cc(I)cc(I)c1O (centres undefined): 10.3
C=CC(=O)N1CCC[C@@H](n2nc(-c3ccc(Oc4ccccc4)cc3)c3c(N)ncnc32)C1: 29.1
